Data origin: patent US10039753B2

# Experimental System: mutant G2019S LRRK2 (Homo sapiens, UniProt Q5S007, G2019S)
# Sequence (Q5S007 970-2527 G2019S limits assumed): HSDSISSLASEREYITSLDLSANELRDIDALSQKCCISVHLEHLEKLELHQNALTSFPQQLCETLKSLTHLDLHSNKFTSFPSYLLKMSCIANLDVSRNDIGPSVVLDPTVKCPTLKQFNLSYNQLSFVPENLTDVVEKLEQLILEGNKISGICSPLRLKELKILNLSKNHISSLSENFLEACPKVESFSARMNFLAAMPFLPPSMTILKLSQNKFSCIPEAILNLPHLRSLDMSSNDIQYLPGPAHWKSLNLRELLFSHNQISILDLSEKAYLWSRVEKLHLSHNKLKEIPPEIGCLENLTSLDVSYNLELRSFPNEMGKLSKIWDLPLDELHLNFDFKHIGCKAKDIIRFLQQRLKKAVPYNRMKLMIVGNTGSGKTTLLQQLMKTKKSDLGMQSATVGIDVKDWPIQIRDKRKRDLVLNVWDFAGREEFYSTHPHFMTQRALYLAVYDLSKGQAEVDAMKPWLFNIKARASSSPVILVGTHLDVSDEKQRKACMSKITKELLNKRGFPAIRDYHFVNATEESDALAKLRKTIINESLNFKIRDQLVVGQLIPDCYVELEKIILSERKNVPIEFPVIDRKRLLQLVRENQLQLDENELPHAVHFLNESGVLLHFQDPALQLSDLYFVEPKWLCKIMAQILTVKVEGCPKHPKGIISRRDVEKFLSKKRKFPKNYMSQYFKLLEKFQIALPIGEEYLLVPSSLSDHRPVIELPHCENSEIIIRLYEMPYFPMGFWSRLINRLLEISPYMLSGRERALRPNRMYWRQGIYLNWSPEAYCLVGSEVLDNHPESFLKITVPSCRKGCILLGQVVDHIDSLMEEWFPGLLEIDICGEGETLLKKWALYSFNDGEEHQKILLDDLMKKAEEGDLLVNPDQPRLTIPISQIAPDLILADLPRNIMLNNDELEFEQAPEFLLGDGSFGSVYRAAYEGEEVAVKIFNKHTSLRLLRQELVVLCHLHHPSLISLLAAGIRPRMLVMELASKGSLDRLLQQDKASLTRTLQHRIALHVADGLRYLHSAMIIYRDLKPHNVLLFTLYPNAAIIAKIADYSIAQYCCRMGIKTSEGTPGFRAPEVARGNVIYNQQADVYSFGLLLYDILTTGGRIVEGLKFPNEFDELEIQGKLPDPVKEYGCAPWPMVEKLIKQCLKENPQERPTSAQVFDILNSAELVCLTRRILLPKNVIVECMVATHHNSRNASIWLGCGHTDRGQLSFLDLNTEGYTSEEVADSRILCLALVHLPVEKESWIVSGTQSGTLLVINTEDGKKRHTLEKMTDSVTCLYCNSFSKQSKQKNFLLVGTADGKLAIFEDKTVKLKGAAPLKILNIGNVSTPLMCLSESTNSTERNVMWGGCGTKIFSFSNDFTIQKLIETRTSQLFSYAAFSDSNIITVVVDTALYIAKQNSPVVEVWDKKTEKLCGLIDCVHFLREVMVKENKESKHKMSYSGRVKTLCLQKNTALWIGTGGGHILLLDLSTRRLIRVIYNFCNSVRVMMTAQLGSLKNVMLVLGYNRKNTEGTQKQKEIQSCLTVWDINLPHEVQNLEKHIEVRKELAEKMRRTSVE
# Method Summary: LRRK2 Assay, Format 2 (Lantha Screen), G2019S mutant
# Type: biochemical
# Parameters: purchased Invitrogen PV4881
# Condition Description: geometric mean of 2-4 determinations unless otherwise indicated (a: >=5; b: single determination); read-out: LRRK2, Format 2 G2019S IC50
pIC50: −log10 of the molar value. Structures can show the parent of a compound that is named as a salt.
Experimental Endpoint: pIC50

a = Cc1nn2cc(Cc3nc4cnc5ccc(C#N)cc5c4n3[C@@H]3CC[C@H](F)C3)nc2s1 (single isomer, unassigned; ent-2) [Example 169]
b = C[C@@H]1C[C@H](n2c(Cc3ccccn3)nc3cnc4ccc(C#N)cc4c32)CCO1 [Example 223]
Query: Sorting by pIC50 in descending order, would a or b appear first? Output the label that corresponds to your choice.
Reply: a
(a: 8.26, b: 8.02)

1 = Cc1ccc(Cc2nc3cnc4ccc(Cl)cc4c3n2[C@@H]2CCO[C@H](C)C2)nc1 [Example 100]
2 = CC(C)c1cn(Cc2nc3cnc4ccc(C#N)cc4c3n2[C@@H]2CCO[C@H](C)C2)nn1 [Example 126, formate salt]
Query: For the pair 1 and 2 , which member has the lower pIC50 number? Output the label that corresponds to your choice.
Reply: 2
(2: 8.09, 1: 8.30)

1 = Cc1cc(Cc2nc3cnc4ccc(C#N)cc4c3n2[C@@H](C)CF)no1 [Example 243, formate salt]
2 = Cc1cc(Cc2nc3cnc4ccc(C#N)cc4c3n2[C@@H]2CC[C@H](F)C2)on1 (single isomer, unassigned; ent-1) [Example 118]
3 = Cc1cn(Cc2nc3cnc4ccc(C#N)cc4c3n2C2CCCC2(F)F)nn1 (single isomer, unassigned; ent-1) [Example 196]
4 = Cc1cnc(Cc2nc3cnc4ccc(C(F)(F)F)cc4c3n2[C@@H]2CCO[C@H](C)C2)cn1 [Example 141]
5 = Cc1cnn(Cc2nc3cnc4ccc(C#N)cc4c3n2[C@@H]2CCN(C)C2)c1 [Example 194]
Query: # rank_down: sort by pIC50, max first A complete answer lists every label in the requested sequence.
Reply: 4, 2, 3, 5, 1
(4: 8.86, 2: 8.21, 3: 7.80, 5: 7.60, 1: 7.07)

P = C[C@@H]1C[C@H](n2c(Cc3cc(C(F)(F)F)on3)nc3cnc4ccc(C#N)cc4c32)CCO1 [Example 119]
Q = Cc1cc(Cc2nc3cnc4ccc(C#N)cc4c3n2[C@H]2CC[C@@H](F)C2)no1 [Example 241, formate salt]
R = Cc1nc(Cc2nc3cnc4ccc(Cl)cc4c3n2C2C[C@@H](C)[C@@H](F)C2)no1 (single isomer, unassigned) [Example 136]
S = C[C@@H]1C[C@H](n2c(Cc3cc(CF)on3)nc3cnc4ccc(Cl)cc4c32)CCO1 [Example 139]
Query: Put the compounds in ascending order of pIC50. A complete answer lists every label in the requested sequence.
Reply: Q, R, P, S
